- SYSTEM NAME: Cdk2(H71C) (C177A) (Homo sapiens, UniProt P24941, C177A/H71C)
- Construct: poly-histidine; made in house; host or cells: E. coli
- PROCEDURE TEXT: Kinetic thiol consumption assay with Cdk2 mutant H71C
- Type: binding
- EXPERIMENTAL PARAMETERS: Protein: Cdk2; cysteine position H71C; additional mutation C177A; in h^-1
MEASUREMENT LABEL: Rate constant with Cdk2 H71C

> print(dat)
                                    molecule             measurement.label   reading
 1        C=CC(=O)N1CCOC2(CCCCC2)C1 [CA-193]  Rate constant with Cdk2 H71C   0.05131
 2          C=CC(=O)Nc1cccc2ncccc12 [CA-012]  Rate constant with Cdk2 H71C   0.01647
 3  C=CC(=O)NC1C2C3CCC(C3)C12 (stereo not drawn) [CA-097]  Rate constant with Cdk2 H71C  0.001541
 4  C=CC(=O)NC1C2CC3CC(C2)CC1C3 (stereo not drawn) [CA-055]  Rate constant with Cdk2 H71C  0.001157
 5  C=CC(=O)Nc1nc2cc3c(cc2s1)OC(F)(F)O3 [CA-142]  Rate constant with Cdk2 H71C  0.003644
 6  C=CC(=O)N1CCN(S(C)(=O)=O)CC1c1ccccc1 (stereo not drawn) [EL-1160]  Rate constant with Cdk2 H71C   0.02783
 7  C=CC(=O)N(c1cccc2ncccc12)C1CCC1 [CA-032/228]  Rate constant with Cdk2 H71C    0.2513
 8  C=CC(=O)NC1CC2CC1C1CCCC21 (stereo not drawn) [CA-159]  Rate constant with Cdk2 H71C  0.003769
 9  C=CC(=O)N(CCCN1CCOCC1)Cc1ccncc1 [CA-192]  Rate constant with Cdk2 H71C  0.002926
10  C=CC(=O)N1CCN(c2cccc3cccnc23)CC1 [EL-1156]  Rate constant with Cdk2 H71C  0.006834
11    C=CC(=O)NC1c2ccccc2Oc2ccccc21 [CA-171]  Rate constant with Cdk2 H71C  0.003488
12  C=CC(=O)N1CCC2CCC(C1)N2C (stereo not drawn) [CA-143]  Rate constant with Cdk2 H71C  0.002353
